- measurement-target: aldosterone synthase (CYP11B2) (Homo sapiens, UniProt P19099)
- Sequence (P19099 25-503): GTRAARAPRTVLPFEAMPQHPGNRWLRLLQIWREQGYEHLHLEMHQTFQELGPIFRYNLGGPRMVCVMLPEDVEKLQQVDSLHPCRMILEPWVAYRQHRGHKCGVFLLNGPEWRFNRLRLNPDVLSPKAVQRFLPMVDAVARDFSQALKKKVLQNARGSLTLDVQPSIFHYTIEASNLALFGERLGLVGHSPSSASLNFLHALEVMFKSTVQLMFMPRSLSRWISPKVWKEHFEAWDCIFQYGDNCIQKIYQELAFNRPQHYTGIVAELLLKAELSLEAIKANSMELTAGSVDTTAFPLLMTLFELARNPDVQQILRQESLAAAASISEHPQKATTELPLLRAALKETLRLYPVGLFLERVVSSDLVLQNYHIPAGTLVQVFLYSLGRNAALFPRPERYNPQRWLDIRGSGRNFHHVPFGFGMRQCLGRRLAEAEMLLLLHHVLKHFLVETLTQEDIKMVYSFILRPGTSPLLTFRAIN
- experiment-description: In vitro aldosterone synthase inhibition: cellular aldosterone production in Ang II-stimulated NCI-H295R cells
- reported-conditions: 1 μM Ang II, 24 hr
- Description: In particular, the aldosterone synthase inhibitory activities in vitro can be determined by the following assay. Human adrenocortical carcinoma NCI-H295R cell line is obtained from American Type Culture Collection (Manassas, Va.). […] Measurement of aldosterone activity can also be performed using a 96-well plate format. […] The amount of aldosterone in each sample is calculated by comparing with a standard curve generated using known quantities of the hormone.
endpoint-label: IC50 (nM)

I. COC(=O)c1cncn1C1c2ccccc2C(=O)OC1(C)C (single isomer, unassigned)
II. CCCCc1cncn1C1c2ccccc2C(=O)OC1(C)C (racemic)
Challenge: Of I and II , which one carries the higher reported IC50? Bench note: the answer is the label of the chosen record.
Response given: I
(I: 24 nM, II: 6 nM)

1. CCOC(=O)c1cncn1C1c2ccccc2C(=O)OC1(C)C (single isomer, unassigned)
2. C=Cc1cncn1C1c2ccccc2C(=O)OC1(C)C (single isomer, unassigned)
Challenge: Of 1 and 2 , which one carries the higher reported IC50? Bench note: the answer is the label of the chosen record.
Response given: 2
(2: 22 nM, 1: 3 nM)

P. Cc1noc(-c2cncn2C2c3ccccc3C(=O)OC2(C)C)n1 (racemic)
Q. CCc1cncn1C1c2ccccc2C(=O)OC12CCOCC2 (racemic)
R. CCc1cncn1C1c2ccccc2C(=O)OC12CCC2 (single isomer, unassigned)
S. CCOCc1cncn1C1c2ccccc2C(=O)OC1(C)C (single isomer, unassigned)
Challenge: Put the compounds in ascending order of IC50. Ranked list of labels, please, in the requested order.
Response given: R, S, P, Q
(R: 7 nM, S: 17 nM, P: 187 nM, Q: 314 nM)

###

- measurement-target: aldosterone synthase (CYP11B2) (Homo sapiens, UniProt P19099)
- Sequence (P19099 25-503): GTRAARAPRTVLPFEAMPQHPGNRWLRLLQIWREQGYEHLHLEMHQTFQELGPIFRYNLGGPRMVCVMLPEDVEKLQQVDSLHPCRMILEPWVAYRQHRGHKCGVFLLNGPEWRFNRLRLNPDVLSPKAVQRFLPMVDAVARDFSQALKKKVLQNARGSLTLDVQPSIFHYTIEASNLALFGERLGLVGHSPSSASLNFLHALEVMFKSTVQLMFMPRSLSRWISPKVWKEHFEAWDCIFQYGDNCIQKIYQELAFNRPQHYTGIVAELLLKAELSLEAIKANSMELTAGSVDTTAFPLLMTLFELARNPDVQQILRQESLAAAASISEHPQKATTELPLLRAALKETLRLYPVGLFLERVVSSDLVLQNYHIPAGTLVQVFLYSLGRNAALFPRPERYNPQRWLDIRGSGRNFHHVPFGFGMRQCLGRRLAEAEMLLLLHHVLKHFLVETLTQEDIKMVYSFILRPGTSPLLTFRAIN
- experiment-description: In vitro aldosterone synthase inhibition: cellular aldosterone production in Ang II-stimulated NCI-H295R cells
- reported-conditions: 1 μM Ang II, 24 hr
A collection of molecules and their measured IC50
Please state the figure in nM; there is no need to write the unit.

Previously resolved entries follow.
| molecule | IC50 [nM] |
| --- | --- |
| COC(=O)c1cncn1C1c2ccccc2C(=O)N(C)C1(C)C (racemic) | 73 |
| COC(=O)c1cncn1C1c2ccccc2C(=O)N(C2CC2)C1(C)C (racemic) | 530 |

Challenge: Consider the molecule CC1(C)OC(=O)c2ccccc2C1n1cncc1C(=O)Oc1ccccc1 (single isomer, unassigned) and give its measured IC50.
Response given: 3
